Reported TGI values for the following compounds.
Test system: PC-3 prostate
Assay: NCI tumour cell line growth inhibition, 48 h

{"COMPOUND": "CCN1CCN(c2nc3ccccc3nc2C(=O)c2ccc(OC)c(OC)c2)CC1", "VALUE": "> 100 µM"}
{"COMPOUND": "CN(C)Cc1ccc(C(C)(C)C)cc1-c1cc(C(C)(C)C)ccc1CN(C)C", "VALUE": "> 100 µM"}
{"COMPOUND": "[N-]=[N+]=Nc1ccc2c(c1)Sc1ccccc1N2CCCCN1CCN(Cc2ccc(C(=O)c3ccc(CSCC(N)C(=O)O)cc3)cc2)CC1 (stereo not given)", "VALUE": "> 100 µM"}
{"COMPOUND": "C[N+]12CCN(c3ccccc31)c1ccccc12", "VALUE": "> 10 µM"}

## Input Using the record for Cc1cc(C)c2c(c1)CC1(Cc3ccc(C)c(C)c3C1=O)C2=O (stereo not given) , report its TGI.
## Output > 100 µM
